Readings of IC50 for the listed molecules
- Tested on: normal PBMC
- EXPERIMENT SUMMARY: Lymphocyte proliferation (3H-TdR incorporation), ConA-stimulated PBMC from normal human subject
- Assay type: cell-based
- CONDITION LABEL: Homo sapiens, PBMC, UV-A, 0.5 J/sc; read-out: IC50 of ConA-induced cell proliferation

{"SMI": "Cc1cc(O)c2c(=O)c3c(O)cc(O)c4c5c(O)cc(O)c6c(=O)c7c(O)cc(C)c8c1c2c(c34)c(c78)c65", "IC50 (nM)": 4600}
{"SMI": "COc1c2occc2cc2ccc(=O)oc12", "IC50 (nM)": 960}

###

- System: normal PBMC
- EXPERIMENT SUMMARY: Lymphocyte proliferation (3H-TdR incorporation), ConA-stimulated PBMC from normal human subject
- Assay type: cell-based
- CONDITION LABEL: Homo sapiens, PBMC, UV-A, 2 J/sc; read-out: IC50 of ConA-induced cell proliferation
pIC50: −log10 of the molar value.
RECORDED ENDPOINT: pIC50

{"SMI": "COc1c2occc2cc2ccc(=O)oc12", "TARGET DESC": "normal PBMC", "EXPERIMENTAL VALUE": 6.82}

###

- System: neoplastic ("CTL") PBMC
- EXPERIMENT SUMMARY: Lymphocyte proliferation (3H-TdR incorporation), ConA-stimulated neoplastic PBMC from subject having CTCL
- Assay type: cell-based, human
- CONDITION LABEL: Homo sapiens, PBMC, 20 min, visible light, 20 min; read-out: IC50 of ConA-induced cell proliferation
pIC50: −log10 of the molar value.

{"SMI": "Cc1cc(O)c2c(=O)c3c(O)cc(O)c4c5c(O)cc(O)c6c(=O)c7c(O)cc(C)c8c1c2c(c34)c(c78)c65", "TARGET DESC": "neoplastic (\"CTL\") PBMC", "pIC50": 6.47}
{"SMI": "COc1c2occc2cc2ccc(=O)oc12", "TARGET DESC": "neoplastic (\"CTL\") PBMC", "pIC50": 5.44}

Values compiled from patent US6001882A.
